Tested on: CCRIS mutagenicity, Ames/micronucleus/aberration tests
Assay: CCRIS mutagenicity studies
Conditions: Test System: AMES SALMONELLA TYPHIMURIUM; Strain/Indicator: TA98; Metabolic Activation: NONE; Method: PREINCUBATION
The source made the active and inactive calls. No rule for the calls is given here.
Pick one and only one: active, inactive

Each compound tested received a call. Report the one for NC(N)=S .
inactive

Each compound tested received a call. Report the one for CC(Cl)Cl .
inactive

Each compound tested received a call. Report the one for CCc1ccccc1[N+](=O)[O-] .
inactive

Each compound tested received a call. Report the one for CN1CCN(C)CC1 .
inactive

Each compound tested received a call. Report the one for O=[N+]([O-])c1ccc2c(c1)Cc1cccc(O)c1-2 .
active

Each compound tested received a call. Report the one for Cc1ccccn1 .
inactive

Each compound tested received a call. Report the one for CC(=O)Nc1cnc2ccccc2c1 .
inactive

Each compound tested received a call. Report the one for CC(C#N)CCC#N (configuration not stated) .
inactive

Each compound tested received a call. Report the one for CCOP(=O)(OCC)OCC .
inactive

Each compound tested received a call. Report the one for O=[N+]([O-])c1c(Cl)c(Cl)cc(Cl)c1Cl .
inactive

Each compound tested received a call. Report the one for CCN(CC)c1cccc(O)c1 .
inactive

Each compound tested received a call. Report the one for CCCCCCCCOC(=O)c1ccccc1C(=O)OCCCCCCCC .
inactive

Each compound tested received a call. Report the one for ClCC(Cl)CCl .
inactive

Each compound tested received a call. Report the one for c1ccc(N(c2ccccc2)c2ccccc2)cc1 .
inactive

Each compound tested received a call. Report the one for C[C@H](CCC(=O)O)[C@H]1CC[C@H]2[C@@H]3CC[C@@H]4C[C@H](O)CC[C@]4(C)[C@H]3C[C@H](O)[C@]12C .
inactive

Each compound tested received a call. Report the one for O=C(O)c1ccc2c(c1)C(=O)OC2=O .
inactive

Each compound tested received a call. Report the one for CCCCCCCCCCCCS .
inactive

Each compound tested received a call. Report the one for O=[N+]([O-])c1ccc(S(=O)(=O)O)cc1 .
inactive

Each compound tested received a call. Report the one for CC(O)CCl (configuration not stated) .
inactive

Each compound tested received a call. Report the one for O=C(Cl)Cc1ccccc1 .
active

Each compound tested received a call. Report the one for CCC(C)C=O (configuration not stated) .
inactive

Each compound tested received a call. Report the one for CN(C)C(=O)Nc1ccc(Cl)cc1 .
inactive

Each compound tested received a call. Report the one for COc1ccc(-c2noc(CC(=O)O)c2-c2ccc(OC)cc2)cc1 .
inactive

Each compound tested received a call. Report the one for CCN(C(=O)N(CC)c1ccccc1)c1ccccc1 .
inactive

Each compound tested received a call. Report the one for CNCCS(=O)(=O)O .
inactive

Each compound tested received a call. Report the one for c1ccc2nccnc2c1 .
inactive

Each compound tested received a call. Report the one for COc1ccc(C(=O)/C(Br)=C\C(=O)O)cc1 .
active

Each compound tested received a call. Report the one for C=C(C#N)C(=O)OC .
inactive

Each compound tested received a call. Report the one for Cc1cc(/C=C/c2ccc3cc(N(C)C)ccc3[n+]2C)c(C)n1-c1ccccc1 .
active

Each compound tested received a call. Report the one for CC(=O)Nc1cccc(C)c1 .
inactive

Each compound tested received a call. Report the one for COCCOC(C)=O .
inactive

Each compound tested received a call. Report the one for Cc1c(F)c(N2CCNC(C)C2)cc2c1c(=O)c(C(=O)O)cn2C1CC1 (configuration not stated) .
inactive

These data points were gathered from PubChem BioAssay AID1259407.
